Data provenance: ChEMBL document CHEMBL4699548

System: A549
TEST SUMMARY: Cytotoxicity against human A549 cells assessed as reduction in cell viability by MTT assay
Assay type: functional, cell-based
Quick rule for you: IC50 under 1000 nM gets true, anything else gets false.

INSERT INTO assay_data (compound, assigned_label) VALUES
  ('COc1cc(C2=NNC(c3ccc(Cl)cc3)C2)ccc1OCc1nnn[nH]1 (configuration not stated)', 'false'),
  ('COc1cc(C2=NOC(c3ccc(F)cc3)C2)ccc1OCc1nnn[nH]1 (configuration not stated)', 'false'),
  ('COc1cc(C2=NOC(c3ccc(Cl)cc3)C2)ccc1OCc1nnn[nH]1 (configuration not stated)', 'false'),
  ('COc1cc(C2=NNC(c3ccc(F)cc3)C2)ccc1OCc1nnn[nH]1 (configuration not stated)', 'true'),
  ('COc1ccc(C2CC(c3ccc(OCc4nnn[nH]4)c(OC)c3)=NO2)cc1OC (configuration not stated)', 'false'),
  ('COc1cc(C2=NOC(c3ccc(C)cc3)C2)ccc1OCc1nnn[nH]1 (configuration not stated)', 'true'),
  ('COc1ccc(C2CC(c3ccc(OCc4nnn[nH]4)c(OC)c3)=NO2)cc1 (configuration not stated)', 'false'),
  ('COc1cc(C2=NNC(c3ccc(O)cc3)C2)ccc1OCc1nnn[nH]1 (configuration not stated)', 'false'),
  ('COc1cc(C2=NOC(c3ccccc3)C2)ccc1OCc1nnn[nH]1 (configuration not stated)', 'false'),
  ('COc1cc(C2=NNC(c3ccccc3)C2)ccc1OCc1nnn[nH]1 (configuration not stated)', 'false'),
  ('COc1ccc(C2CC(c3ccc(OCc4nnn[nH]4)c(OC)c3)=NN2)cc1 (configuration not stated)', 'false'),
  ('COc1cc(C2=NNC(c3cccc(O)c3)C2)ccc1OCc1nnn[nH]1 (configuration not stated)', 'false'),
  ('COc1cc(C2=NOC(c3cccc(O)c3)C2)ccc1OCc1nnn[nH]1 (configuration not stated)', 'false'),
  ('COc1ccc(C2CC(c3ccc(OCc4nnn[nH]4)c(OC)c3)=NN2)cc1OC (configuration not stated)', 'false'),
  ('COc1cc(C2=NOC(c3ccc(O)cc3)C2)ccc1OCc1nnn[nH]1 (configuration not stated)', 'false'),
  ('COc1ccc(/C=C\c2cc(OC)c(OC)c(OC)c2)cc1O', 'true');
